Molecular target: UniProt:P37288
Sequence (P37288 whole entry): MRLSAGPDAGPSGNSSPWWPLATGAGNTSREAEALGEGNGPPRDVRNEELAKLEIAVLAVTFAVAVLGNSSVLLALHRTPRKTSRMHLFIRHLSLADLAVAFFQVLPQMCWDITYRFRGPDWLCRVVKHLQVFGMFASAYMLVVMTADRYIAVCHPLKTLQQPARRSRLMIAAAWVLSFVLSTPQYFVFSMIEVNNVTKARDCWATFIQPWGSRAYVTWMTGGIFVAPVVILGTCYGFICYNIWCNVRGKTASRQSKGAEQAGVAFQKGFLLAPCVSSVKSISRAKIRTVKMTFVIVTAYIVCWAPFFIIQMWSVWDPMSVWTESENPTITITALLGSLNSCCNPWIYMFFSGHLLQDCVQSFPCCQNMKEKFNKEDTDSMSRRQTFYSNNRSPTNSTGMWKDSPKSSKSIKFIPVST
Assay: Displacement of [3H]-AVP from human vasopressin V1a receptor expressed in CHO cells after 30 mins
Format: cell-based
# Lookup of reported Ki keyed by entry

compound | reported
CCN(CC)c1ccc2c(-c3ccc(S(=O)(=O)[O-])cc3S(=O)(=O)NCCOCCOCCOCCn3cc(CNC(=O)CCC(=O)NC4CCCN(C(=O)c5ccc(NC(=O)c6ccccc6-c6ccccc6)cc5)c5ccccc54)nn3)c3ccc(=[N+](CC)CC)cc-3oc2c1 (stereo not drawn) | > 10 µM
O=C(CCC(=O)NC1CCCN(C(=O)c2ccc(NC(=O)c3ccccc3-c3ccccc3)cc2)c2ccccc21)NCc1cn(CCOCCOCCOCCNC(=S)Nc2ccc(-c3c4ccc(=O)cc-4oc4cc(O)ccc34)c(C(=O)O)c2)nn1 (stereo not drawn) | > 10 µM

The measured Ki associated with CCN(CC)c1ccc2c(-c3ccc(S(=O)(=O)[O-])cc3S(=O)(=O)NCCOCCOCCOCCn3cc(CNC(=O)CCC(=O)NC4CCCN(C(=O)c5ccc(NC(=O)c6ccccc6C)cc5)c5ccccc54)nn3)c3ccc(=[N+](CC)CC)cc-3oc2c1 (stereo not drawn) reads > 10 µM
